Recorded pIC50 for the following compounds
Biological target: Cathepsin S (UniProt P25774)
Experiment: Cathepsin enzyme inhibition assay (fluorogenic peptide substrate Z-Val-Val-Arg-AMC), Cathepsin S
Type: biochemical, human and mouse
Settings: enzyme 1 nM, substrate 20 μM, pH 6.5; read-out: CatS IC50
pIC50: −log10 of the molar value.

{"cpdSmiles": "N#CC1(NC(=O)[C@@H]2C[C@@H](S(=O)(=O)c3ccc(OCC(F)(F)F)cc3Cl)CN2C(=O)C2(c3ccc(Cl)c(Cl)c3)CC2)CC1", "pIC50": 10.10}
{"cpdSmiles": "CC1(C(=O)N2C[C@H](S(=O)(=O)c3ccc(OCC(F)(F)F)cc3C(F)(F)F)C[C@H]2C(=O)NC2(C#N)CC2)CC1", "pIC50": 9.52}
{"cpdSmiles": "N#CC1(NC(=O)[C@@H]2C[C@@H](S(=O)(=O)c3ccccc3C(F)(F)F)CN2c2cc(C3CCOCC3)nn2C2CCC2)CC1", "pIC50": 9.36}
{"cpdSmiles": "Cc1cc(N2C[C@H](S(=O)(=O)CC3CC3)C[C@H]2C(=O)NC2(C#N)CC2)n(Cc2ccccc2)n1", "pIC50": 6.14}
{"cpdSmiles": "N#CC1(NC(=O)[C@@H]2C[C@@H](S(=O)(=O)c3ccc(-n4cnc5cnccc54)cc3Cl)CN2C(=O)C2(c3ccc(Cl)cc3)CC2)CC1", "pIC50": 10.52}
{"cpdSmiles": "Cc1cc(N2C[C@H](S(=O)(=O)c3ccc(F)cc3C(F)(F)F)C[C@H]2C(=O)NC2(C#N)CC2)n(C2CCC2)n1", "pIC50": 9.32}
